Molecular target: T1, cyno TF ECD-His (cTF-his) (monkey (cyno))
T1 construct: also called bio-cTF-his; monkey TF-His protein
T1 chain: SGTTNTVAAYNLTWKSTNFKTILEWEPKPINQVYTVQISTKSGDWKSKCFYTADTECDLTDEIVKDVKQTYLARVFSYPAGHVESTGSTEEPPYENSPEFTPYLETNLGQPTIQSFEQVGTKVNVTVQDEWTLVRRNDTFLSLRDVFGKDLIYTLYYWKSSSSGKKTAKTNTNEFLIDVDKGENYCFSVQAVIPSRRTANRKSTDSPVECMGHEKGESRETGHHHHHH
Experiment: SPR Biacore T200, antibody on Protein A chip, TF-His as analyte, 1:1 model
readout-kind: pKd
Answers are plain numbers, as −log10 of the molar value.

| binder | readout-kind | reported-result |
| --- | --- | --- |
| hu67-1 (antibody, human IgG1, kappa, V domains shown) VH: EVTLKQSGPVLVKPTQTLTLTCTVSGFSLTNYGVNWIRQPPRKALEWLAVIWSRGNTDYNAAFISRLTISKDTSKSQVVLKMTNMDPVDTATYYCARKDAVVATDALDYWGQGTTVTVSS VL: DIVMTQSPKSLAVSLGERATINCKASQDVSTAVAWYQQKPGQPPKLLIYSTSYRYTGVPDRFSGSGSGTDFTLTISSLQAEDVAVYYCQQHYSTPYTFGGGTKVEIKR | pKd | 7.83 |
| hu67-11 (antibody, human IgG1, kappa, V domains shown) VH: EVQLQESGPGLVKPSQTLSLTCTVSGFSLTNYGVNWIRQPPGKGLEWIGVIWSRGNTDYNAAFISRVTISKDTSKNQVSLKLSSVTAADTAVYYCARKDAVVATDALDYWGQGTTVTVSS VL: DIQMTQSPSSLSASVGDRVTITCKASQDVSTAVAWYQQKPGKAPKLLIYSTSYRYTGVPSRFSGSGSGTDFTFTISSLQPEDIATYYCQQHYSTPYTFGGGTKVEIKR | pKd | 8.05 |

Name the recorded pKd of the binder listed here: hu10H10-53 (antibody, V domains shown, H11+L6; Full-length IgG) VH: EVQLVQSGSELKKPGASVKVSCKASGYTFITYWIEWVKQRPGQGLEWMGDILPYSGSTNYNENFKGRATFSADTSVSTAYLQISSLKAEDTAVYYCARSGYYGNSGFAYWGQGTLVTVSS VL: DIQMTQSPSSLSASVGDRVTITCKSSQSLLSSSNQKNYLTWYQQKPGKAPKLLIYWASTREEGVPSRFSGSGSGTDFTLTISSLQPEDFATYYCQNDYTYPLTFGQGTKLEIK 9.43

Sourced from patent EP4703388A1
